- System: IgE antibodies from patients
- assayDetails: Wheat epitope mapping (2): overlapping 10-amino-acid peptide fragments shifted by one amino acid
- Type: binding, human
- conditionDetails: serum of patient P9 (WDEIA); sequence without X
experimentalReadout: Epitope sequence binding to IgE antibody, rank of the sequence

1419 (YLQPQQPIS; REGION 1..9: note = epitope) [compound 1419] : Key
1218 (PIQQQP; REGION 1..6: note = epitope) [compound 1218] : Preferably
1378 (QQPLPPQQQP; REGION 1..10: note = epitope) [compound 1378] : Preferably
1220 (IQQQP; REGION 1..5: note = epitope) [compound 1220] : Key
1420 (SQQQA; REGION 1..5: note = epitope) [compound 1420] : Key

// next item, Epitope sequence binding to IgE antibody, rank of the sequence requested
[Q] What value of Epitope sequence binding to IgE antibody, rank of the sequence has been reported for the following substance? 1418 (YLQPQQPISQ; REGION 1..10: note = epitope) [compound 1418]
[A] Preferably

* * *

- Tested on: IgE antibodies from patients
- assayDetails: Wheat epitope mapping (2): overlapping 10-amino-acid peptide fragments shifted by one amino acid
- Type: binding, human
- conditionDetails: serum of patient P16 (WDEIA); partial sequence
- Description: The peptides to be synthesized were shifted by one amino acid. The library was prepared by the same procedure as described above in (A), and the presence or absence of binding of an IgE antibody present in the serum of a patient to each peptide fragment was measured by the same technique as described above. […]
experimentalReadout: Epitope sequence binding to IgE antibody, rank of the sequence

Here's what some known entries look like.
2709 (YKIGGIGT; REGION 1..8: note = epitope) [compound 2709] : Preferably
2710 (YKIGG; REGION 1..5: note = epitope) [compound 2710] : Key
2505 (SQVSF; REGION 1..5: note = epitope) [compound 2505] : Key
2642 (KEAAEM; REGION 1..6: note = epitope) [compound 2642] : Key

// next item, Epitope sequence binding to IgE antibody, rank of the sequence requested
[Q] What value of Epitope sequence binding to IgE antibody, rank of the sequence has been reported for the following substance? 2504 (SSQVSF; REGION 1..6: note = epitope) [compound 2504]
[A] Preferably

* * *

- System: IgE antibodies from patients
- assayDetails: Wheat epitope mapping (2): overlapping 10-amino-acid peptide fragments shifted by one amino acid;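 on Rank of partial sequence as epitope binding to IgE antibody: key = sequence deemed particularly important within the common 15-residue sequence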
- Assay type: binding, human
- conditionDetails: serum of patient P3 (WDEIA); sequence without X
experimentalReadout: Rank of partial sequence as epitope binding to IgE antibody

1567 (PFPQTQQ; REGION 1..7: note = epitope) [compound 1567] : Preferably
1568 (PFPQTQ; REGION 1..6: note = epitope) [compound 1568] : Key
1601 (AQLEAIRSL; REGION 1..9: note = epitope) [compound 1601] : Preferably
1509 (QVPLVQQ; REGION 1..7: note = epitope) [compound 1509] : Preferably

* * *

- Tested on: IgE antibodies from patients
- assayDetails: Wheat epitope mapping (2): overlapping 10-amino-acid peptide fragments shifted by one amino acid;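 on epitope sequence binding to IgE antibody, rank (Key/Preferably/More preferably): key of grades: preferably = shorter partial sequence still acting as epitope; more preferably = sequence improving IgE binding; key = particularly important sequence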
- Assay type: binding, human
- conditionDetails: serum of patient P12 (WDEIA)
experimentalReadout: epitope sequence binding to IgE antibody, rank (Key/Preferably/More preferably)

1924 (FPGQQ; REGION 1..5: note = epitope) [compound 1924] : Key
1846 (TVRTLQR; REGION 1..7: note = epitope) [compound 1846] : Key
1922 (QVPLVQQ; REGION 1..7: note = epitope) [compound 1922] : Key
1921 (QVPLVQQQ; REGION 1..8: note = epitope) [compound 1921] : Preferably
1923 (QQFPGQQQ; REGION 1..8: note = epitope) [compound 1923] : Preferably

// next item, epitope sequence binding to IgE antibody, rank (Key/Preferably/More preferably) requested
[Q] What value of epitope sequence binding to IgE antibody, rank (Key/Preferably/More preferably) has been reported for the following substance? 1845 (YTVRTLQR; REGION 1..8: note = epitope) [compound 1845]
[A] Preferably
